These entries and their values trace back to patent US20210147455A1.

- Test Description: Stability experiments under 25° C.±2° C. and 65% R.H±5% R.H
- Assay Setup: month 12; 25° C./65% R.H
Measured Attribute: Related substance (%)
Expressed in %, but write only the number.

**Query** Bench note: what Related substance did `CC[C@@H]([C@H](C)OP(=O)(O)O)n1ncn(-c2ccc(N3CCN(c4ccc(OC[C@@H]5CO[C@@](Cn6cncn6)(c6ccc(F)cc6F)C5)cc4)CC3)cc2)c1=O.CNC[C@H](O)[C@@H](O)[C@H](O)[C@H](O)CO` show?
**Result** 0.50

**Query** Bench note: what Related substance did CC[C@@H]([C@H](C)OP(=O)(O)O)n1ncn(-c2ccc(N3CCN(c4ccc(OC[C@@H]5CO[C@@](Cn6cncn6)(c6ccc(F)cc6F)C5)cc4)CC3)cc2)c1=O.N=C(N)NCCC[C@H](N)C(=O)O [Comparative Example 5, Posaconazole Phosphate Monoarginine Salt] show?
**Result** 0.51

**Query** Bench note: what Related substance did CC[C@@H]([C@H](C)OP(=O)([O-])[O-])n1ncn(-c2ccc(N3CCN(c4ccc(OC[C@@H]5CO[C@@](Cn6cncn6)(c6ccc(F)cc6F)C5)cc4)CC3)cc2)c1=O.C[N+](C)(C)CCO.C[N+](C)(C)CCO [Comparative Example 1, Posaconazole Phosphate Bicholinate] show?
**Result** 0.31
